Reference for the values: patent US20220096649A1

Target: T1, SIRP-α human v2 (human, UniProt P78324 31-149, limits assumed)
T1 construct: Soluble analyte in SPR
T1 sequence (P78324 other isoform, or with tags, fused parts or gaps limits assumed): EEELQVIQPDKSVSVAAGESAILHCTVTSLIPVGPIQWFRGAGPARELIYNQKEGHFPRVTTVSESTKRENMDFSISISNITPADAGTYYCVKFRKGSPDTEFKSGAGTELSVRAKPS
Test: SPR, antibody on GLC chip, SIRP as analyte
Measured Parameter: Kd (nM)
Response body: numeric value in nM, unit text excluded.

Some binders with recorded Kd:
Binder | Measure Unit | Kd
Anti-SIRP-α antibody 135, light chain Mut, heavy chain wt (antibody, V domains shown, Whole antibody; Light chain mut = F21L, D60A) VH: DVQLVESGGGVVRPGESLRLSCAASGFSFSIYAMSWVRQAPGEGLEWVSTIGADDTYYADSVKGRFTISRDNSKNTLYLQMNSLRAEDTAVYYCAKDSTVGWSGDFFDYWGLGTLVTVSS VL: EIVLTQSPATLSVSPGERVTLSCRASQNVRSDIAWYQQKPGQAPRLLIYAASSRDTGIPARFSGSGSGTDFTLTISSLQSEDFGVYYCQQYYDWPPFTFGGGTKVEIK | nM | 0.027
Anti-SIRP-α antibody 119, light chain Mut, heavy chain Mut (antibody, V domains shown, Whole antibody) VH: EVQLLESGGGVVQPGGSLRLSCAASGFSFSNFAVTWVRQAPGKGLEWVSTIGSGDTYYADSVKGRFTISRDNSKNTLYLQMNSLRAEDTAVYYCAKDSTVSWSGDFFDYWGQGTLVTVSS VL: EIVLTQSPATLSVSPGERATLSCRASQNVKNDLAWYQQKPGQAPRLLIYAARIRETGIPARFSGSGSGTEFTLTISSLQSEDFAVYYCQQYYDWPPFTFGGGTKVEIK | nM | 0.088

Task: Tell us which Kd value is on record for Anti-SIRP-α antibody 119, light chain Mut, heavy chain Mut_V34M (antibody, V domains shown, Whole antibody) VH: EVQLLESGGGVVQPGGSLRLSCAASGFSFSNFAMTWVRQAPGKGLEWVSTIGSGDTYYADSVKGRFTISRDNSKNTLYLQMNSLRAEDTAVYYCAKDSTVSWSGDFFDYWGQGTLVTVSS VL: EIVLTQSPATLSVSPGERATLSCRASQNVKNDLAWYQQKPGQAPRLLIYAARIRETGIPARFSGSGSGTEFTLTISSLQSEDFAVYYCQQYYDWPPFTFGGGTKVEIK
Output: 0.069
